Tested on: LOC_OS01G21960-cb002;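 note: purified Escherichia coli-expressed rice kinase domain construct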
Assay: thermal shift delta Tm vs DMSO control; higher = stronger stabilization (binding)
Details: 12.5 µM; protein concentration 2 µM
Structures can show the parent of a compound that is named as a salt.
readoutLabel: thermal shift delta Tm

> print(dat)
                                    molecule         subjectoftest  resultvalue
 1  O=C(c1ccc(Nc2nccc(-c3cc4ccccc4s3)n2)cc1)N1CCC(N2CCCC2)CC1  LOC_OS01G21960-cb002      2.79 °C
 2                        Cn1cnc(N)c2ncnc1-2  LOC_OS01G21960-cb002      0.32 °C
 3  Cc1n[nH]c2ncc(C(=O)N3CCC[C@H]3c3ccc(Cl)cc3)cc12  LOC_OS01G21960-cb002      0.38 °C
 4  CNC(=O)c1ccccc1Nc1cc(Nc2ccc(N3CCOCC3)cc2OC)ncc1C(F)(F)F  LOC_OS01G21960-cb002      1.09 °C
 5  CCCCCCCCCCCCCCCCCCOP(=O)([O-])OC1CC[N+](C)(C)CC1  LOC_OS01G21960-cb002     -1.07 °C
 6  Cc1nc(Nc2ncc(C(=O)Nc3c(C)cccc3Cl)s2)cc(N2CCN(CCO)CC2)n1  LOC_OS01G21960-cb002      1.22 °C
 7  FC(F)(F)c1ccc(Nc2nc3ccc(Oc4ccnc(-c5ncc(C(F)(F)F)[nH]5)c4)cc3[nH]2)cc1  LOC_OS01G21960-cb002       3.8 °C
 8  C[S+]([O-])c1ccc(-c2nc(-c3ccc(F)cc3)c(-c3ccncc3)[nH]2)cc1 (stereo not drawn)  LOC_OS01G21960-cb002      1.22 °C
 9  O=C(Nc1ccc(OC(F)(F)F)cc1)c1sccc1NCc1ccnc2ccccc12  LOC_OS01G21960-cb002      0.12 °C
10  CC#CC(=O)N1CC[C@@H](n2c(=O)n(-c3ccc(Oc4ccccc4)cc3)c3c(N)ncnc32)C1 [ONO-4059 (GS-4059) hydrochloride]  LOC_OS01G21960-cb002      0.04 °C
11  CCCNC(=O)Nc1ccc(Oc2ncnc3cc(OC)c(OC)cc23)cc1Cl  LOC_OS01G21960-cb002      0.37 °C
12  O=C1NC(=O)C(c2ccccc2[N+](=O)[O-])=C1Nc1ccc(O)c(Cl)c1  LOC_OS01G21960-cb002      1.43 °C
13  O=C(c1ccc(/C=C/c2n[nH]c3ccccc23)cc1)N1CCNCC1  LOC_OS01G21960-cb002      2.42 °C
14  CCCCOc1c(C(=O)c2c(F)cc(C)cc2F)c[nH]c2nncc1-2  LOC_OS01G21960-cb002      1.36 °C
15  C[C@@H](Oc1ccc2[nH]nc(/C=C/c3cnn(CCO)c3)c2c1)c1c(Cl)cncc1Cl  LOC_OS01G21960-cb002      3.51 °C
16  C=C(C)[C@@H]1CC[C@]2(C)CC[C@]3(C)[C@H](CC[C@@H]4[C@@]5(C)CC[C@H](O)C(C)(C)[C@@H]5CC[C@]43C)[C@@H]12  LOC_OS01G21960-cb002      0.67 °C
17  CNC(=O)c1ccc(C)c(-n2c(C)cc(OCc3ccc(F)cc3F)c(Br)c2=O)c1  LOC_OS01G21960-cb002      0.34 °C
18  O=C(Cc1ccc(-c2ccc(OCCN3CCOCC3)cc2)cn1)NCc1ccccc1  LOC_OS01G21960-cb002      0.58 °C
